System: ASPS-1 complex tumor spheroids, viability
Procedure text: Anticancer human tumor ASPS-1 cell line growth inhibition;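 also: spheroids exposed to agents for 7 days after 3 days of growth; 100% = DMSO vehicle treated spheroids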
Details: second compound 30 pM; first compound 0.1 µM; hits give low values
I'd be grateful if you could share measured viability, T/C for these entries.
Numbers only, in %.

Molecule	Attribute measured	Readout value
Cc1cc(C)c(CNC(=O)c2cc(-c3ccc(CN4CCOCC4)cc3)cc3c2cnn3C2CCCC2)c(=O)[nH]1 + COc1cc2c(cc1O)CCNC21CSC2c3c(OC(C)=O)c(C)c4c(c3C(COC1=O)N1C(O)C3Cc5cc(C)c(OC)c(O)c5C(C21)N3C)OCO4	viability, T/C	97.4

Okay, now this molecule:
What the record says about CC1COCCN1c1cc(-c2ccnn2C)c2ccnc(-c3ccn[nH]3)c2n1 (configuration not stated) + COc1cc2c(cc1O)CCNC21CSC2c3c(OC(C)=O)c(C)c4c(c3C(COC1=O)N1C(O)C3Cc5cc(C)c(OC)c(O)c5C(C21)N3C)OCO4 : viability, T/C is 53.9
